target: PD-L1 (Homo sapiens, UniProt Q9NZQ7); construct: determine if they can specifically dimerize the extracellular domains of PD-L1; assay: PD-L1/PD-L1 dimerization biochemical protein-protein interaction assay (ALPHA); format: binding; conditions: compound-induced PD-L1 dimerization, head prints '1 nM' (0.5 nM His-tagged PD-L1 and 0.5 nM FLAG-tagged PD-L1), read-out: AC50 PDL1 Dimer Alpha 1 nM
Sequence (Q9NZQ7 19-238 limits assumed): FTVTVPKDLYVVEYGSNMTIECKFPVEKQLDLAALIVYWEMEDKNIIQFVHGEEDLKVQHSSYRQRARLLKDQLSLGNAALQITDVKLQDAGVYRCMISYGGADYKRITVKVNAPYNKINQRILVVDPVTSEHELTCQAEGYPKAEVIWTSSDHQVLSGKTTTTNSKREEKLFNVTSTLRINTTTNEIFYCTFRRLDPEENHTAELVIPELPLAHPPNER
Sequence (Q9NZQ7 19-238 limits assumed): as above
OUTCOME_MEASURE: AC50 (nM)

compound=COc1nc(O[C@H]2CCc3c(-c4cccc(-c5ccc(CNC[C@@H]6CCC(=O)N6)cc5)c4Cl)cccc32)c(Cl)cc1CN1CCCC[C@H]1C(=O)O value=7.89

A. Cc1c(COc2cc(OCc3cncc(C#N)c3)c(CNC(C)(CO)C(=O)O)cc2Cl)cccc1-c1cccc(-c2ccc(CN3CCC4(CNC(=O)C4)C3)cc2)c1C (centres unmarked)
B. COc1nc(-c2cccc(-c3cccc4c3CC[C@@H]4Oc3nc(OCc4cncc(C#N)c4)c(CN[C@@](C)(CO)C(=O)O)cc3Br)c2C)ccc1C1=NCCN1
C. COc1nc(O[C@H]2CCc3c(-c4cccc(-c5cnc6c(CNC[C@@H]7CCC(=O)N7)cn(C)c6n5)c4Cl)cccc32)c(Cl)cc1CN1CC[C@@H](C(=O)O)C1
Hey, can you sort those compounds up there by AC50, smallest first? When ranking, write the labels in the order the request describes. B, C, A
(B: 10.1 nM, C: 63.3 nM, A: 133 nM)
